// provenance: patent US20180237774A1

- Test system: E. faecalis
- test_method_notes: Sublethal antibiotic concentration determination (growth-rate monitoring)
- Assay type: cell-based, Enterococcus faecalis ATCC 29212
- measurement_conditions: Table 6
Positions of bridges follow the written chain, without caps; N, C: chain ends. Non-standard residues stand in square brackets, D forms with d. Residues, ends and D or L forms follow the SMILES beside them. *: point of attachment. Ileψ(thiazoline)Cys = CC[C@H](C)[C@H](N)C1=N[C@H](C(=O)*)CS1; dOrn = NCCC[C@@H](N)C(=O)O
quantity: Sublethal concentrations of antibiotics used in this study (µg/mL)
One number for each entry, in µg/mL.

CCC[C@@H]1C[C@@H](C(=O)N[C@@H]([C@H]2O[C@H](SC)[C@H](O)[C@@H](O)[C@H]2O)[C@@H](C)O)N(C)C1 | 2
CC1(C)S[C@@H]2[C@H](NC(=O)[C@H](N)c3ccccc3)C(=O)N2[C@H]1C(=O)O | 2
NC[C@H]1O[C@H](O[C@H]2[C@H](O)[C@@H](O[C@H]3O[C@H](CO)[C@@H](O)[C@H](N)[C@H]3O)[C@H](N)C[C@@H]2N)[C@H](O)[C@@H](O)[C@@H]1O | 16
CC[C@H](C)[C@H](N)C1=N[C@H](C(=O)N[C@@H](CC(C)C)C(=O)N[C@H](CCC(=O)O)C(=O)N[C@H](C(=O)N[C@H]2CCCCNC(=O)[C@H](CC(N)=O)NC(=O)[C@@H](CC(=O)O)NC(=O)[C@H](Cc3cnc[nH]3)NC(=O)[C@@H](Cc3ccccc3)NC(=O)[C@H]([C@@H](C)CC)NC(=O)[C@@H](CCCN)NC2=O)[C@@H](C)CC)CS1 [Bacitracin] ({Ileψ(thiazoline)Cys}-L[dE]IK[dOrn]I[dF]H[dD]N; lactam 4-C) | 1
O=C(N[C@H](CO)[C@H](O)c1ccc([N+](=O)[O-])cc1)C(Cl)Cl | 0.4

Attention now shifts to the item below.
Q: I have this compound here, "CC[C@H]1OC(=O)[C@H](C)[C@@H](O[C@H]2C[C@@](C)(OC)[C@@H](O)[C@H](C)O2)[C@H](C)[C@@H](O[C@@H]2O[C@H](C)C[C@H](N(C)C)[C@H]2O)[C@](C)(O)C[C@@H](C)C(=O)[C@H](C)[C@@H](O)[C@]1(C)O" , and I need its recorded Sublethal concentrations of antibiotics used in this study.
Result: 0.5
